Tested system: BuChE (Equus caballus)
Construct: BuChE from equine serum was employed for Ellman’s assay
Sequence (P81908 whole entry): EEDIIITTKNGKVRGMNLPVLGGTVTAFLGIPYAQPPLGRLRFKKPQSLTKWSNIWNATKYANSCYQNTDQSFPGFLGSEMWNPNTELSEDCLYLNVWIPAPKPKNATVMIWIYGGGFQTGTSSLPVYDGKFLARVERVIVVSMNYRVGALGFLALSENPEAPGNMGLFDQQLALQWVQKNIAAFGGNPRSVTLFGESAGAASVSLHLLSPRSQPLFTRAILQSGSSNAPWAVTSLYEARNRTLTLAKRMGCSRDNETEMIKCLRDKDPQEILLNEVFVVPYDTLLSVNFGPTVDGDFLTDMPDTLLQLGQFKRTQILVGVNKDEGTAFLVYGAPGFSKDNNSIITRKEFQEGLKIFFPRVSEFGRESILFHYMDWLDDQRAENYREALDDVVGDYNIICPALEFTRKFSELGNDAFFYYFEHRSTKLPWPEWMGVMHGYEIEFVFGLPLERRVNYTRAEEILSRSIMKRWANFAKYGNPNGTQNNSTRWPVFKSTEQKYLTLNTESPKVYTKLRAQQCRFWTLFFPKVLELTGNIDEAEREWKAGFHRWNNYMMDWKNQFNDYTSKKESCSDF
Procedure details: Kinetic study of BuChE inhibition (Lineweaver–Burk)
Settings: secondary plot; inhibitor 0, 10.0, 20.0, 40.0 µM; read-out: Inhibitory constant (Ki) for BuChE
Measured endpoint: pKi
# log scale: pKi equals minus log10 of the concentration in mol/L

Quick check: pKi of COc1cccc(Cn2cc(COc3ccc(-c4cc5ccccc5oc4=O)cc3)nn2)c1 ?
4.85

----------
Tested system: 15-LOX (soybean lipoxygenase) (Glycine max, UniProt P08170)
Construct: purchased Merck or Aldrich
Sequence (P08170 whole entry): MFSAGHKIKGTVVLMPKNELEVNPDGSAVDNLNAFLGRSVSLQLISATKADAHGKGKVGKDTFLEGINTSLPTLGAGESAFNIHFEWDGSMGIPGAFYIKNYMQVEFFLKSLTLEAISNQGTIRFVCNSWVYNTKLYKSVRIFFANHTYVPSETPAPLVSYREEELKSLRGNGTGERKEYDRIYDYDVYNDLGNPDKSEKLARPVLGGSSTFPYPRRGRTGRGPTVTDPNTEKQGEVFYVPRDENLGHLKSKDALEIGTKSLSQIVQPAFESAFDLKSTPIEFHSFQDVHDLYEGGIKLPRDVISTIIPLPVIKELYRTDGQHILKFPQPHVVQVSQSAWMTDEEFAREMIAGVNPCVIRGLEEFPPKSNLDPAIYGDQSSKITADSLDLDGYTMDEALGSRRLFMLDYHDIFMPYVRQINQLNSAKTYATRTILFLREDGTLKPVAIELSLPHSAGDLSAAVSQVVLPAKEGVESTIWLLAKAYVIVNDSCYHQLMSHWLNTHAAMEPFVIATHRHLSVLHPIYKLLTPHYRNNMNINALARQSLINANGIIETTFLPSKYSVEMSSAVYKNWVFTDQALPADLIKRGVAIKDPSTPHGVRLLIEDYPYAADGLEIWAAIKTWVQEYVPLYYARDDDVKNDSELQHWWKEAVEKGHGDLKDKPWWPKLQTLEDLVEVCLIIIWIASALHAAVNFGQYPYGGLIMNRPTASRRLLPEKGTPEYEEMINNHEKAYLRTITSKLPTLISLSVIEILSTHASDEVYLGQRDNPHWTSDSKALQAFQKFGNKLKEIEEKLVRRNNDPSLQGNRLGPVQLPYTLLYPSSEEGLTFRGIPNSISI
Procedure details: Soybean 15-LOX inhibition assay
Format: biochemical
Listing of entries alongside the reported pIC50.
# log scale: pIC50 equals minus log10 of the concentration in mol/L

COc1cccc2cc(-c3ccc(OCc4cn(Cc5ccc(F)cc5)nn4)cc3)c(=O)oc12	4.46

Quick check: pIC50 of O=c1oc2ccccc2cc1-c1ccc(OCc2cn(Cc3cccc(F)c3)nn2)cc1 ?
4.55

Where these numbers come from: paper PMC8812461
